What microsomal CLint at 0.5 μM was measured for each of the following?
# Procedure Summary: Determination of the microsomal half-life, human liver microsomes
# Protocol Conditions: human, liver microsomes, pH 7.4
Where a name gives a salt, the structure may show the parent alone.

Recorded results for 3 compounds are shown here.
> print(dat)
                                   compound  recorded.measurement
1  O=C1c2c(cccc2N2CCS(=O)(=O)CC2)CN1CCc1ccc2ccccc2n1       < 100 µL/min/mg
2  O=C1c2c(cccc2-c2ccc3[nH]cnc(=O)c3c2)CN1CCc1ccc2ccccc2n1 [Example 7, trifluoroacetate]  100 to 220 µL/min/mg
3  Cc1ncccc1-c1cccc2c1C(=O)N(CCc1ccc3ccccc3n1)C2  100 to 220 µL/min/mg

Let's switch to this compound now.
response.value for `COc1ccc(-c2ccncc2)c2c1CN(CCc1nc3ccccc3n1C)C2=O` (field: microsomal CLint at 0.5 μM) = > 220 µL/min/mg

----------
# Assayed System: PDE10A (human) (Homo sapiens, UniProt Q9Y233)
# Sequence (Q9Y233 whole entry): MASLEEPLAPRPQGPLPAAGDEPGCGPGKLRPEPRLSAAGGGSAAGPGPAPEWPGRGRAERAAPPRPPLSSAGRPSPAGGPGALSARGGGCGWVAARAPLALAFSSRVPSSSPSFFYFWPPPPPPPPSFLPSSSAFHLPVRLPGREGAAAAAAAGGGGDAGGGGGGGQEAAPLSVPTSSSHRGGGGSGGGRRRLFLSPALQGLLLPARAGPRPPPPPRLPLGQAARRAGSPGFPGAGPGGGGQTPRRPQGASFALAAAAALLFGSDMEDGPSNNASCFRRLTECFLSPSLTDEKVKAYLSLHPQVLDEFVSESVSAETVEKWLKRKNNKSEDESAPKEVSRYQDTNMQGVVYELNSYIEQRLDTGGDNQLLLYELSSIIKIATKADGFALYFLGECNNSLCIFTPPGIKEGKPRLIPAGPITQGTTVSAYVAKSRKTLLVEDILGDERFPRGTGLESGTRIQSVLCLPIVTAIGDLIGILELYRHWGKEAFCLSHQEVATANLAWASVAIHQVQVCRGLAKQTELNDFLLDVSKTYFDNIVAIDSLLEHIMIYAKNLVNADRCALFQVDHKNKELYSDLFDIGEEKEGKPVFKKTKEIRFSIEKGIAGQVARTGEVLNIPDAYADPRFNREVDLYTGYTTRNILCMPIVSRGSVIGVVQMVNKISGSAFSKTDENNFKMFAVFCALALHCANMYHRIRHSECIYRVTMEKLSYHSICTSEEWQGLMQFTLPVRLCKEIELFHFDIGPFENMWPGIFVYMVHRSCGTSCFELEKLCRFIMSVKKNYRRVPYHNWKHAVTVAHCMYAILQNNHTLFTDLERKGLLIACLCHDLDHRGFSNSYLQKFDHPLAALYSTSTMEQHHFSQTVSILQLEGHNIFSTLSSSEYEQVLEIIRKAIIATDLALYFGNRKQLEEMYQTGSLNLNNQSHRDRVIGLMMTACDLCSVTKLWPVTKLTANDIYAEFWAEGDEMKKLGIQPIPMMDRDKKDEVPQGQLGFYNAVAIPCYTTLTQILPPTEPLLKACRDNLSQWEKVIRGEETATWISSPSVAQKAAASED
pIC50: −log10 of the molar value. Structures can show the parent of a compound that is named as a salt.
Measure: pIC50

Recorded results for 3 molecules are shown here.
> print(dat)
                                   molecule  recorded.measurement
1  COc1ccc(N2CCOCC2)c2c1CN(CCc1nc3ccccc3n1C)C2=O [Example 371]                > 7.00
2  O=C1c2c(cccc2-c2ccncc2)CN1CCc1cccc(-c2ncccn2)c1 [Example 121]          6.30 to 6.70
3  COc1ccc(-c2ccnc3c2CN(CCc2cn4ccccc4n2)C3=O)cc1 [compound 461, trifluoroacetate]          6.70 to 7.00

Let's switch to this molecule now.
Simply: COc1ccc(-c2ccnn2C)c2c1CN(CCc1cn3ccccc3n1)C2=O [Example 373] , PDE10A (human) (Homo sapiens, UniProt Q9Y233), pIC50 = > 7.00

----------
# Procedure Summary: in vitro
# Protocol Conditions: human, microsomes, pH 7.4
Measure: microsomal CLint at 0.5 μM

response.value for O=C1c2c(cccc2N2C3CCC2CNC3)CN1CCc1ccc2ccccc2n1 [Example 103] (field: microsomal CLint at 0.5 μM) = < 100 µL/min/mg

----------
# Procedure Summary: Determination of the microsomal half-life, human liver microsomes
# Protocol Conditions: human, liver microsomes, pH 7.4
What microsomal CLint at 0.5 μM was measured for each of the following?

Recorded results for 5 compounds are shown here.
> print(dat)
                                   compound                     measure  recorded.measurement
1  COc1ccc(N2CCN(C3CCN(C)CC3)CC2)c2c1CN(CCc1ccc3ccccc3n1)C2=O [Example 269, di-trifluoroacetate]  microsomal CLint at 0.5 μM       < 100 µL/min/mg
2  Cn1nccc1-c1ccnc2c1C(=O)N(CCc1nc3ccccc3n1C)C2 [Example 214]  microsomal CLint at 0.5 μM       < 100 µL/min/mg
3  O=C1c2cccc(-c3cc[nH]n3)c2CN1CCc1ccc2ccccc2n1 [Example 200]  microsomal CLint at 0.5 μM  100 to 220 µL/min/mg
4  O=C1c2c(-c3cc[nH]n3)ccnc2CN1CCc1nc2ccccc2s1 [compound 429]  microsomal CLint at 0.5 μM       < 100 µL/min/mg
5  Cc1ccc2c(c1)nc(CCN1Cc3nccc(-c4ccncc4)c3C1=O)n2C [compound 536]  microsomal CLint at 0.5 μM  100 to 220 µL/min/mg

Hello, I would appreciate it if you could give microsomal CLint at 0.5 μM for each entry below.
1. O=C1c2c(cccc2-c2cn[nH]c2)CN1CCc1cn2ccccc2n1 [Example 242]
2. O=C1c2c(-c3ccncc3)ccc(F)c2CN1CCc1cn2ccccc2n1 [Example 280]

< 100 µL/min/mg
100 to 220 µL/min/mg

Hello, I would appreciate it if you could give microsomal CLint at 0.5 μM for each entry below.
1. O=C1c2c(N3CCOCC3)ccnc2CN1CCc1nc2ccccc2o1 [compound 417]
2. CN1CCN(c2cccc3c2C(=O)N(CCc2ccc4ccccc4n2)C3)CC1 [Example 107]

< 100 µL/min/mg
< 100 µL/min/mg

The origin of these recorded values is patent US9938269B2.
